Target: WT ASIC1a (Homo sapiens)
Experiment: Isust/Ipeak, TEVC in Xenopus oocytes, WT
Conditions: FRRFa in pH7.4 conditioning and pH5 solution, mean ± SEM, n = 7–12, read-out: EC50 for induction of sustained current (Isust/Ipeak)
Peptide text beside a SMILES is read from it.
MEASUREMENT_NAME: EC50 (µM)
Answers are plain numbers, in µM.

Jot down EC50 (WT ASIC1a (Homo sapiens)) of N=C(N)NCCC[C@H](NC(=O)[C@H](CCCNC(=N)N)NC(=O)[C@@H](N)Cc1ccccc1)C(=O)N[C@@H](Cc1ccccc1)C(N)=O [FRRFa, Phe-Arg-Arg-Phe-amide] (H-FRRF-NH2) .
37

====

Molecular target: ASIC1a N416C (Homo sapiens, UniProt P78348, N416C)
Sequence (P78348 1-528 N416C): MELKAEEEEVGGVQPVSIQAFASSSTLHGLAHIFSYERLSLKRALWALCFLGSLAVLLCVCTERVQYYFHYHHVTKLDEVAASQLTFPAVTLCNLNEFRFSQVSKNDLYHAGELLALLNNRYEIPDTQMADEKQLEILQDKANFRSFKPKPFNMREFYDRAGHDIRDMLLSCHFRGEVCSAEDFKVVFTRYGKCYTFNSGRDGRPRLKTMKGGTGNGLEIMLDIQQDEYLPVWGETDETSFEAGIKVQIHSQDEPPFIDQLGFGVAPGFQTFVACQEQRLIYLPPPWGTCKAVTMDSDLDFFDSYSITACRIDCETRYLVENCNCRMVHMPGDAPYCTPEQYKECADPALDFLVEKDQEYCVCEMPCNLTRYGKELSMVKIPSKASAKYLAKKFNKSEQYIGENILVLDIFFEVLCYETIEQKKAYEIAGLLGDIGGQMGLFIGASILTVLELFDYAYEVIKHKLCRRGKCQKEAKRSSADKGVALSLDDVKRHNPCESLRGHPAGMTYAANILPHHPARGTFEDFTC
Assay: Isust/Ipeak, TEVC in Xenopus oocytes
Conditions: pH5, n = 6–7, mean ± SEM, read-out: EC50 of FRRFa (Isust/Ipeak)
Peptide text beside a SMILES is read from it.
MEASUREMENT_NAME: EC50 (µM)
Numbers only, in µM.

Give the reported EC50 for this compound. N=C(N)NCCC[C@H](NC(=O)[C@H](CCCNC(=N)N)NC(=O)[C@@H](N)Cc1ccccc1)C(=O)N[C@@H](Cc1ccccc1)C(N)=O [FRRFa, Phe-Arg-Arg-Phe-amide] (H-FRRF-NH2)
6
